- experiment notes: In vitro inhibition of geranylgeranyl-protein transferase type-II
- Design: species or system Homo sapiens
quantity name: pIC50
# log scale: pIC50 equals minus log10 of the concentration in mol/L

Request: Quick one: pIC50 of CCCCCCCCCCCCCC/C(C(=O)O)=C(\C)C(=O)O [CHAETOMELLIC ACID A] ?
Response: 4.47

---

Below is a list of entries, each paired with its recorded pIC50 value.
- target or test system: Geranylgeranyl transferase type I (Homo sapiens, UniProt P49354+P53609)
- experiment notes: In vitro inhibition of geranylgeranyl-protein transferase type-I
- Format: protein-complex assay
# log scale: pIC50 equals minus log10 of the concentration in mol/L

Worked set:
[[record]]
molecule = "CCCCCCCCCCCCCC/C(C(=O)O)=C(\\C)C(=O)O [CHAETOMELLIC ACID A]"
quantity_name = "pIC50"
test_result = 4.04

[[record]]
molecule = "CC(C)=CCCC1=CCC(C(=O)O)C(C(=O)O)C1 (configuration not stated)"
quantity_name = "pIC50"
test_result = 3.05

[[record]]
molecule = "CC(C)=CCCC1=CCC2C(=O)OC(=O)C2C1 (configuration not stated)"
quantity_name = "pIC50"
test_result = 4.40

[[record]]
molecule = "CC(C)=CCC/C(C)=C/CCC1=CCC2C(=O)OC(=O)C2C1 (configuration not stated)"
quantity_name = "pIC50"
test_result = 3.87

[[record]]
molecule = "CCCCCCCCC/C=C/CC1CC(=O)OC1=O (configuration not stated)"
quantity_name = "pIC50"
test_result = 3.40

[[record]]
molecule = "CC(C)=CCC/C(C)=C/C=C1\\CCC(C(=O)O)C(C(=O)O)C1 (configuration not stated)"
quantity_name = "pIC50"
test_result = 3.38


Request: Reported pIC50 for Geranylgeranyl transferase type I (Homo sapiens, UniProt P49354+P53609), given CC(C)CCCC(C)CCCC(C)CCCC1=CCC2C(=O)OC(=O)C2C1 (configuration not stated) ?
Response: 4.68

Request: Also, CCCCCCCCCCCC(=O)OC(=O)CCCCCCCCCCC [DODECANOIC ANHYDRIDE] please.
Response: 3.64

---

- target or test system: Protein farnesyltransferase (Homo sapiens, UniProt P49354+P49356)
- experiment notes: In vitro inhibition of farnesyl-protein transferase
- Assay type: protein-complex assay
quantity name: IC50 (µM)
Respond with the bare value in µM.

[[record]]
molecule = "CCCCCCCCCCCC(=O)OC(=O)CCCCCCCCCCC [DODECANOIC ANHYDRIDE]"
target_or_test_system = "Protein farnesyltransferase (Homo sapiens, UniProt P49354+P49356)"
test_result = 854

[[record]]
molecule = "CC(C)=CCCC1=CCC2C(=O)OC(=O)C2C1 (stereo not given)"
target_or_test_system = "Protein farnesyltransferase (Homo sapiens, UniProt P49354+P49356)"
test_result = 449

[[record]]
molecule = "CCCCCCCCC/C=C/CC(CC(=O)O)C(=O)O (stereo not given)"
target_or_test_system = "Protein farnesyltransferase (Homo sapiens, UniProt P49354+P49356)"
test_result = 402


Request: Quick one: IC50 of CC(C)=CCC/C(C)=C/CCC1=CCC2C(=O)OC(=O)C2C1 (stereo not given) ?
Response: 190

---

- target or test system: Geranylgeranyl transferase type I (Homo sapiens, UniProt P49354+P53609)
- experiment notes: In vitro inhibition of Geranylgeranyl transferase type I
- Type: protein-complex assay
quantity name: pIC50
# log scale: pIC50 equals minus log10 of the concentration in mol/L

Request: Quick one: pIC50 of CC(C)=CCC/C(C)=C/CCC1=CCC2C(=O)OC(=O)C2C1 (stereo unspecified) ?
Response: 3.30
